The origin of these recorded values is paper PMC6332220.

System: Staphylococcus aureus
test description: MIC by broth dilution, Staphylococcus aureus
Type: cell-based
condition label: Staphylococcus aureus, Gram positive, 0.98-125 µg/mL, read-out: Minimum Inhibitory Concentration (MIC) (µg/mL) Staphylococcus aureus
assay metric: MIC (µg/mL)

| molecule | recorded number |
| --- | --- |
| Clc1nc2ccc(Br)cc2n2nnnc12 | 3.9 |
| NNc1nc2cc(Br)ccc2nc1Cl [Compound 3, 6-Bromo-2-chloro-3-hydrazinylquinoxaline] | 3.9 |
| Brc1ccc2nc(N3CCOCC3)c3nnnn3c2c1 | 1.95 |
| NC1=NN(c2nc3ccc(Br)cc3nc2N2N=C(N)CC2=O)C(=O)C1 | 1.95 |
| Brc1ccc2nc(N3CCCCC3)c3nnnn3c2c1 | 62.5 |
| Cc1cc(C)n(-c2nc3cc(Br)ccc3nc2NN)n1 | 1.95 |
| Brc1ccc2c(c1)n1nnnc1c1nnnn21 | 7.81 |
| NNc1nc2ccc(Br)cc2nc1NN [Compound 9, 6-Bromo-2,3-dihydrazinylquinoxaline] | 1.95 |

* * *

Tested on: Aspergillus flavus
test description: Disk diffusion, Aspergillus flavus
Format: cell-based
condition label: Fungi, 8.0 mm disks, 10 μL
assay metric: Inhibition Zone Diameter (IZ) (mm) Aspergillus flavus

| compound | subject of test | result |
| --- | --- | --- |
| Clc1nc2ccc(Br)cc2n2nnnc12 [Compound 4] | Aspergillus flavus | 13 mm |
| Clc1ccc(C=NNc2nc3cc(Br)ccc3nc2Cl)cc1 [Compound 8] | Aspergillus flavus | R (R (IZ = 0 mm)) |
| NC1=NN(c2nc3ccc(Br)cc3nc2N2N=C(N)CC2=O)C(=O)C1 [Compound 16] | Aspergillus flavus | R (R (IZ = 0 mm)) |
| Brc1ccc2nc(N3CCOCC3)c3nnnn3c2c1 [Compound 5b] | Aspergillus flavus | R (R (IZ = 0 mm)) |
| C[C@@H]1[C@H](O)[C@@H](C)/C=C/C=C/C=C/C=C/C=C/C=C/C=C/[C@H](O[C@@H]2O[C@H](C)[C@@H](O)[C@H](N)[C@@H]2O)C[C@@H]2O[C@](O)(C[C@@H](O)C[C@@H](O)[C@H](O)CC[C@@H](O)C[C@@H](O)CC(=O)O[C@H]1C)C[C@H](O)[C@H]2C(=O)O [Amphotericin B, reference compound] | Aspergillus flavus | 17 mm |
| NNc1nc2cc(Br)ccc2n2nnnc12 [Compound 7] | Aspergillus flavus | R (R (IZ = 0 mm)) |
| Cc1cc(C)n(-c2nc3cc(Br)ccc3nc2NN)n1 [Compound 14] | Aspergillus flavus | R (R (IZ = 0 mm)) |
| Cc1cc(C)n(-c2nc3cc(Br)ccc3nc2Cl)n1 [Compound 6] | Aspergillus flavus | R (R (IZ = 0 mm)) |
| Brc1ccc2nc(N3CCCCC3)c3nnnn3c2c1 [Compound 5a] | Aspergillus flavus | R (R (IZ = 0 mm)) |
| Cc1c[nH]nc2c3n[nH]cc(C)n-3c3cc(Br)ccc3n1-2 [Compound 12] | Aspergillus flavus | R (R (IZ = 0 mm)) |
| Cc1cc(C)n(-c2nc3ccc(Br)cc3nc2-n2nc(C)cc2C)n1 [Compound 15] | Aspergillus flavus | R (R (IZ = 0 mm)) |

* * *

Test system: Salmonella typhimurium
test description: Disk diffusion, Salmonella typhimurium
Format: cell-based
condition label: Gram negative, 8.0 mm disks, 10 μL
assay metric: Inhibition Zone Diameter (IZ) (mm) Salmonella typhimurium

| molecular string | subject of test | result |
| --- | --- | --- |
| Cc1cc(C)n(-c2nc3cc(Br)ccc3nc2NN)n1 | Salmonella typhimurium | 10 mm |
| Cc1cc(C)n(-c2nc3ccc(Br)cc3nc2-n2nc(C)cc2C)n1 | Salmonella typhimurium | 10 mm |
| NC1=NN(c2nc3ccc(Br)cc3nc2N2N=C(N)CC2=O)C(=O)C1 | Salmonella typhimurium | 10 mm |
